# protocol text: Phase I study CXR1002-001: plasma pharmacokinetics (LC-MS/MS)
# Assay type: in vivo, human
# test context: human, plasma, po, 1000 mg, Patient 042, 1000 mg weekly oral dose, Time 2 hr; read-out: Concentration (plasma level)
experimental endpoint: concentration at 2 hr

compound	observed result
O=C(O)C(F)(F)C(F)(F)C(F)(F)C(F)(F)C(F)(F)C(F)(F)C(F)(F)F [CXR1002]	272 µM

====

# protocol text: Phase I study CXR1002-001: plasma pharmacokinetics (LC-MS/MS)
# Assay type: in vivo, human
# test context: human, plasma, oral, 600 mg, Patient 020, 600 mg, person, plasma, 672 hr (Day 29); read-out: Concentration
# Description: PK samples, PD (fasting) samples, blood glucose, and blood triglyceride samples, were taken over a 6-week period. Dose limiting toxicity (DLT) will be based on the toxicity assessments over the first 3-week period of the repeat dosing schedule. […]

molecule	display unit	concentration at 672 h
O=C(O)C(F)(F)C(F)(F)C(F)(F)C(F)(F)C(F)(F)C(F)(F)C(F)(F)F [CXR1002]	µM	540
